Target: T1, 4H1913-AA
T1 chain: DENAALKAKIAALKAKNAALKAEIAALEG
Assay: two-hybrid library CCmax;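 further: natural log of median RNA to DNA barcode read ratio; higher means stronger binding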
Details: mean of both orientations
ENDPOINT: interaction score
Just the number, please, no unit after it.

Problem: Please give measured interaction score of the following entry: DENAALKAEIAALEAENAALEAKIAALKG [4H1558-AA]
Solution: 1.75

Problem: Please give measured interaction score of the following entry: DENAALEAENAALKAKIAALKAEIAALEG [4H1257-AA]
Solution: -0.977

Problem: Please give measured interaction score of the following entry: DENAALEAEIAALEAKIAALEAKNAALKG [4H1064-AA]
Solution: -0.972

Problem: Please give measured interaction score of the following entry: DEIAALEAENAALEAEIAALEAEIAALKG [4H130-AA]
Solution: 1.08

Problem: Please give measured interaction score of the following entry: DENAALEAKNAALEAKIAALKAKIAALKG [4H1454-AA]
Solution: -1.24

Problem: Please give measured interaction score of the following entry: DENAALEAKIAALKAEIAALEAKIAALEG [4H1349-AA]
Solution: -0.124

Problem: Please give measured interaction score of the following entry: DENAALEAKIAALKAEIAALKAKNAALKG [4H1360-AA]
Solution: -1.61
